tested on: MCF-7; assay: MTS assay (cytotoxicity), growth inhibition of MCF-7; format: cell-based; details: Homo sapiens, MCF7, 120 h, Table 5, series III, 5 days, read-out: Growth Inhibition (IC50) MCF-7
In this section, each of the compounds is paired with its reported IC50.
Answer format: numeric, nM implied, no suffix.

Past entries and their recorded results:
• COc1c(C)cnc(CN2C(=O)/C(=C\c3ccc(C(=O)C(F)(F)F)[nH]3)c3c(Cl)nc(N)nc32)c1C = 810
• CCN(CC)CCNC(=O)c1c(C)[nH]c(/C=C2\C(=O)N(Cc3ncc(C)c(OC)c3C)c3nc(N)nc(Cl)c32)c1C = 21300
• COc1c(C)cnc(CN2C(=O)/C(=C\c3cc(Br)c[nH]3)c3c(Cl)nc(N)nc32)c1C = 1380
• COc1c(C)cnc(CN2C(=O)/C(=C\c3[nH]ncc3Br)c3c(Cl)nc(N)nc32)c1C = 1270
• CCN(CC)CCNC(=O)c1c[nH]c(/C=C2\C(=O)N(Cc3cc(C)n(C)n3)c3nc(N)nc(Cl)c32)c1 = 1700
• COc1c(C)cnc(CN2C(=O)/C(=C\c3cc(C(=O)NCCCN4CCCC4)c[nH]3)c3c(Cl)nc(N)nc32)c1C = 890
• COc1c(C)cnc(CN2C(=O)/C(=C\c3cc(C(=O)NCCCN4CCOCC4)c[nH]3)c3c(Cl)nc(N)nc32)c1C = 170
• COc1c(C)cnc(CN2C(=O)/C(=C\c3cc4c([nH]3)CCC=C4Cl)c3c(Cl)nc(N)nc32)c1C = 5430
• COc1c(C)cnc(CN2C(=O)/C(=C\c3cc(C(=O)NCCN4CCC(O)CC4)c[nH]3)c3c(Cl)nc(N)nc32)c1C = 110
• COc1c(C)cnc(CN2C(=O)/C(=C\c3cc(C(=O)NCCN4CCCC4)c[nH]3)c3c(Cl)nc(N)nc32)c1C = 30

Inquiry: So what does the record say about IC50 for COc1c(C)cnc(CN2C(=O)/C(=C\c3cc(C(=O)NCCN4CCOCC4)c[nH]3)c3c(Cl)nc(N)nc32)c1C ?
Reply text: 100

Inquiry: Would you kindly repeat that for COc1c(C)cnc(CN2C(=O)/C(=C\c3[nH]c(C)cc3C)c3c(Cl)nc(N)nc32)c1C ?
Reply text: 3650

Inquiry: Would you kindly repeat that for COc1c(C)cnc(CN2C(=O)/C(=C\c3cc(C(=O)NCCN(CCO)CCO)c[nH]3)c3c(Cl)nc(N)nc32)c1C ?
Reply text: 680

Inquiry: Would you kindly repeat that for CCN(CC)CCCc1ccc(/C=C2\C(=O)N(Cc3ncc(C)c(OC)c3C)c3nc(N)nc(Cl)c32)[nH]1 ?
Reply text: 1370

---

In this section, each of the molecules is paired with its reported pIC50.
tested on: MCF-7; experiment: MTS assay (cytotoxicity), growth inhibition of MCF-7; format: cell-based; conditions: Homo sapiens, MCF7, 120 h, Table 5, series III, 5 days, read-out: Growth Inhibition (IC50) MCF-7
Would you please state pIC50, meaning minus log10 of the concentration in mol/L, as a bare number?

* COc1c(C)cnc(CN2C(=O)/C(=C\c3cc(C(=O)NCCNC(C)C)c[nH]3)c3c(Cl)nc(N)nc32)c1C [III-21] | 6.82
* COc1c(C)cnc(CN2C(=O)/C(=C\c3cc(C(C)(C)C)n[nH]3)c3c(Cl)nc(N)nc32)c1C [III-52] | 6.72

Inquiry: So what does the record say about pIC50 for COc1c(C)cnc(CN2C(=O)/C(=C\c3cc(C(=O)N(CCO)CCO)c[nH]3)c3c(Cl)nc(N)nc32)c1C [III-27] ?
Reply text: 6.48

Inquiry: Would you kindly repeat that for COc1c(C)cnc(CN2C(=O)/C(=C\c3cc(C(=O)CN4CCC(C(F)(F)F)CC4)c[nH]3)c3c(Cl)nc(N)nc32)c1C [III-94] ?
Reply text: 6.41

Inquiry: Would you kindly repeat that for COc1c(C)cnc(CN2C(=O)/C(=C\c3nc(NC(=O)C(C)C)c[nH]3)c3c(Cl)nc(N)nc32)c1C [III-71] ?
Reply text: 6.43

The measurements presented in this section are drawn from patent US20110124634A1.
